# assayed.target: IRAK4 (Homo sapiens, UniProt Q9NWZ3)
# Sequence (Q9NWZ3 1-460): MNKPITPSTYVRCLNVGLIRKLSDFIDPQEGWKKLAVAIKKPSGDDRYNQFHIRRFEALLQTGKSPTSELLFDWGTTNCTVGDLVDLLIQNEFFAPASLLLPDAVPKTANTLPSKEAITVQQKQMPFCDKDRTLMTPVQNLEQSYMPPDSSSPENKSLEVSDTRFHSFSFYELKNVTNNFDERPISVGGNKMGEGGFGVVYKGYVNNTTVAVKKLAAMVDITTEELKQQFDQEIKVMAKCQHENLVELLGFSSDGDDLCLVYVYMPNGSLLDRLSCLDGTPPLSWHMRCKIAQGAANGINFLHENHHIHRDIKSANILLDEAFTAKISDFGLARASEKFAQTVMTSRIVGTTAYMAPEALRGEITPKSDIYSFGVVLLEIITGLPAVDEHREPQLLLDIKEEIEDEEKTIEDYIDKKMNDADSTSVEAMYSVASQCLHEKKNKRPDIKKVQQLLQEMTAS
# assay.summary: PBMC degradation assay (western blot, % IRAK4 degraded after 4 hours)
# Type: cell-based
# condition.info: human PBMCs
readout: PBMC % IRAK4 Degradation

NC(=O)c1nn(C2CN(C(=O)COCCOCCOCCOCCNc3cccc4c3C(=O)N(C3CCC(=O)NC3=O)C4=O)C2)cc1NC(=O)c1coc(-c2ccnc(NCC(F)(F)F)c2)n1 (centres unmarked) = C (<20% degradation)
NC(=O)c1nn(-c2ccc(C(=O)NCCCCCCCCNC(=O)COc3cccc4c3C(=O)N(C3CCC(=O)NC3=O)C4=O)cc2)cc1NC(=O)c1coc(-c2ccnc(NCC(F)(F)F)c2)n1 (centres unmarked) = B (>20-50% degradation)
NC(=O)c1nn(-c2ccc(C(=O)NCCc3cn(CCCNc4cccc5c4C(=O)N(C4CCC(=O)NC4=O)C5=O)nn3)cc2)cc1NC(=O)c1coc(-c2ccnc(NCC(F)(F)F)c2)n1 (centres unmarked) = B (>20-50% degradation)
NC(=O)c1nn(C2CCN(C(=O)COCCOCCOCCOCCNc3cccc4c3C(=O)N(C3CCC(=O)NC3=O)C4=O)CC2)cc1NC(=O)c1coc(-c2ccnc(NCC(F)(F)F)c2)n1 (centres unmarked) = C (<20% degradation)

###

# assay.summary: Pharmacokinetics in CD-1 mice (plasma concentrations, PK parameters)
# Format: in vivo
# condition.info: CD-1, mouse, plasma, iv, 2 mg/kg, mouse (CD1) iv 2 mg/kg; Mean IV
readout: half-life (h)
The reply should be a number in h, with the unit left off.

Which half-life is reported for this molecule? NC(=O)c1nn(-c2ccc(C(=O)NCCOCCOCCNc3cccc4c3C(=O)N(C3CCC(=O)NC3=O)C4=O)cc2)cc1NC(=O)c1coc(-c2ccnc(NCC(F)(F)F)c2)n1 (stereo not shown)
3.65

###

# assayed.target: IRAK4 (Homo sapiens, UniProt Q9NWZ3)
# assay.summary: OCI-LY-10 degradation assay (western blot, % IRAK4 degraded after 4 hours)
# Type: cell-based
# Design: endogenous in cells; host or cells: OCI-LY10
# condition.info: OCI-LY10 cells, IRAK4 degraded after 4 hours, western blot
readout: OCI-LY10 % IRAK4 Degradation

Cc1ncsc1-c1ccc(CNC(=O)C2C[C@@H](O)CN2C(=O)[C@@H](NC(=O)COCCOCCOCCOCCOC(C)(C)C(F)CNC(=O)c2cnc(-n3ncc4cc(C#N)cnc43)cc2NC2CC2)C(C)(C)C)cc1 (some centres unmarked) = C (<20% degradation)
NC(=O)c1nn(-c2ccc(C(=O)NCCOCCOCCCc3cccc4c3C(=O)N(C3CCC(=O)NC3=O)C4=O)cc2)cc1NC(=O)c1coc(-c2ccnc(NCC(F)(F)F)c2)n1 (centres unmarked) = A (>50% degradation)
N#Cc1cnc2c(cnn2-c2cc(NC3CC3)c(C(=O)NCC(F)CCOCCOCCOCCNc3cccc4c3C(=O)N(C3CCC(=O)NC3=O)C4=O)cn2)c1 (centres unmarked) = C (<20% degradation)
NC(=O)c1nn(-c2ccc(COCCOCCOCCNc3cccc4c3C(=O)N(C3CCC(=O)NC3=O)C4=O)cc2)cc1NC(=O)c1coc(-c2ccnc(NCC(F)(F)F)c2)n1 (centres unmarked) = A (>50% degradation)

###

# assay.summary: Pharmacokinetics in Sprague Dawley rats (plasma and brain concentrations, PK parameters)
# Format: in vivo
# condition.info: Sprague Dawley rat, iv 3 mg/kg, mean of 3 rats
readout: Cl obs Mean (mL/min/kg)
Write the answer as a number in mL/min/kg, unit excluded.

Look at this molecule and give its reported Cl obs Mean. O=C1CCC(N2C(=O)c3cccc(NCCOCCOCCNCc4ccc(-n5cc(NC(=O)c6coc(-c7ccnc(NCC8CC8)c7)n6)c(C(F)F)n5)cc4)c3C2=O)C(=O)N1 (stereo not shown)
42

###

# assay.summary: Pharmacokinetics in Sprague Dawley rats (plasma and brain concentrations, PK parameters)
# Type: in vivo
# condition.info: Sprague-Dawley, rat, plasma, iv, 3 mg/kg, Sprague Dawley rat, iv 3 mg/kg, Rat 1; read-out: MRTInf_obs Rat 1
# Description: Pharmacokinetics for I-127, I-172 and I-210 were determined in Sprague Dawley rats or CD-1 mice by dosing intravenous (IV), subcutaneous (SC) or per oral (PO) using facility SOPs and sampling plasma at required time points. […] Compounds were extracted from plasma, injected on reverse phase HPLC, eluted with a gradient from 5% to 95% acetonitrile in water and quantified by mass spectrometry with internal standard. […]
readout: MRT inf (h)
Your answer should be a plain number; it is taken to be in h.

Which MRT inf value is on record for O=C1CCC(N2C(=O)c3cccc(NCCOCCOCCNCc4ccc(-n5cc(NC(=O)c6coc(-c7ccnc(NCC8CC8)c7)n6)c(C(F)F)n5)cc4)c3C2=O)C(=O)N1 (stereo not shown) [I-210] ?
3.26

###

# assay.summary: Pharmacokinetics in Sprague Dawley rats (plasma and brain concentrations, PK parameters)
# Assay type: in vivo
# condition.info: Sprague-Dawley, rat, plasma, iv, 3 mg/kg, Sprague Dawley rat, iv 3 mg/kg, plasma, 1 h, Rat 1; read-out: Concentration Rat 1
readout: concentration at 1 h (ng/mL)
The answer is to be given in ng/mL; state only the numeric part.

Name the recorded concentration at 1 h for O=C1CCC(N2C(=O)c3cccc(NCCOCCOCCNCc4ccc(-n5cc(NC(=O)c6coc(-c7ccnc(NCC8CC8)c7)n6)c(C(F)F)n5)cc4)c3C2=O)C(=O)N1 (stereo not shown) [I-210] .
236

###

# assay.summary: Pharmacokinetics in CD-1 mice (plasma concentrations, PK parameters)
# Assay type: in vivo
# condition.info: CD-1, mouse, plasma, sc, 30 mg/kg, mouse (CD1) sc 30 mg/kg; 0.25 h; Mean
readout: concentration at 0.25 h (ng/mL)

a = O=C1CCC(N2C(=O)c3cccc(NCCOCCOCCNCc4ccc(-n5cc(NC(=O)c6coc(-c7ccnc(NCC8CC8)c7)n6)c(C(F)F)n5)cc4)c3C2=O)C(=O)N1 (centres unmarked)
b = NC(=O)c1nn(-c2ccc(C(=O)NCCCCCNCCNc3cccc4c3C(=O)N(C3CCC(=O)NC3=O)C4=O)cc2)cc1NC(=O)c1coc(-c2ccnc(NCC(F)(F)F)c2)n1 (centres unmarked)
For a and b , which recorded concentration at 0.25 h is lower? Please reply using the label of the selected record.
b
(b: 43.1 ng/mL, a: 79.3 ng/mL)

###

# assay.summary: Pharmacokinetics in CD-1 mice (plasma concentrations, PK parameters)
# Assay type: in vivo
# condition.info: CD-1, mouse, plasma, iv, 2 mg/kg, mouse (CD1) iv 2 mg/kg; 5 min; Mean IV; read-out: concentrations
readout: concentration at 5 min (ng/mL)
The answer is to be given in ng/mL; state only the numeric part.

Using the record for NC(=O)c1nn(-c2ccc(C(=O)NCCOCCOCCNc3cccc4c3C(=O)N(C3CCC(=O)NC3=O)C4=O)cc2)cc1NC(=O)c1coc(-c2ccnc(NCC(F)(F)F)c2)n1 (stereo not shown) , report its concentration at 5 min.
1290

###

# assay.summary: Pharmacokinetics in Sprague Dawley rats (plasma and brain concentrations, PK parameters)
# Type: in vivo
# condition.info: Sprague Dawley, rat, plasma, po, 10 mg/kg, Rat (Sprague Dawley) po 10 mg/kg; individual Rat 4-6; read-out: MRTInf_obs
readout: MRT inf (h)
Give the value in h but do not write h after it.

Please look up its MRT inf: O=C1CCC(N2C(=O)c3cccc(NCCOCCOCCNCc4ccc(-n5cc(NC(=O)c6coc(-c7ccnc(NCC8CC8)c7)n6)c(C(F)F)n5)cc4)c3C2=O)C(=O)N1 (stereo not shown)
7.27

###

# assay.summary: Pharmacokinetics in Sprague Dawley rats (plasma and brain concentrations, PK parameters)
# Format: in vivo
# condition.info: Sprague Dawley, rat, plasma, iv, 3 mg/kg, Sprague Dawley rat, iv 3 mg/kg, Rat 1; read-out: C0 Rat 1
readout: C0 (ng/mL)
Form entry: value (ng/mL) — number only.

Need C0, item O=C1CCC(N2C(=O)c3cccc(NCCOCCOCCNCc4ccc(-n5cc(NC(=O)c6coc(-c7ccnc(NCC8CC8)c7)n6)c(C(F)F)n5)cc4)c3C2=O)C(=O)N1 (stereo not shown) [I-210]
873
